- Test system: panel of breast cancer cell lines
- MEASUREMENT_DESCRIPTION: Compound A with targeted agents and chemotherapies, 72-hour in vitro proliferation assays
- Assay type: cell-based
- SETUP_CONDITIONS: BT-474 cell line; compound A × partner; 72-hour proliferation
MEASURE: Loewe Volume
Enter the number alone.

Prompt line: I would be grateful if you could share the reported Loewe Volume for N.N.[Cl][Pt][Cl] [Cisplatin] .
Response line: −4.42

Prompt line: What value of Loewe Volume has been reported for the following compound? N.N.O=C([O-])C1(C(=O)[O-])CCC1.[Pt+2]
Response line: −4.61

Prompt line: Any idea what its Loewe Volume is? The compound is CO[C@H]1C[C@@H]2CC[C@@H](C)[C@@](O)(O2)C(=O)C(=O)N2CCCC[C@H]2C(=O)O[C@H]([C@H](C)C[C@@H]2CC[C@@H](OCCO)[C@H](OC)C2)CC(=O)[C@H](C)/C=C(\C)[C@@H](O)[C@@H](OC)C(=O)[C@H](C)C[C@H](C)/C=C/C=C/C=C/1C
Response line: −2.71

Prompt line: Find the recorded Loewe Volume belonging to CC(=O)O[C@@]12CO[C@@H]1C[C@H](O)[C@@]1(C)C(=O)[C@H](O)C3=C(C)[C@@H](OC(=O)[C@H](O)[C@@H](NC(=O)OC(C)(C)C)c4ccccc4)C[C@@](O)([C@@H](OC(=O)c4ccccc4)[C@H]21)C3(C)C and report it.
Response line: 8.62

Prompt line: Any idea what Loewe Volume was measured for C[C@]12CC[C@@H]3c4ccc(O)cc4C[C@@H](CCCCCCCCC[S+]([O-])CCCC(F)(F)C(F)(F)F)[C@H]3[C@@H]1CC[C@@H]2O (some centres unmarked) ?
Response line: 1.42

====

- Tested on: panel of breast cancer cell lines
- MEASUREMENT_DESCRIPTION: Compound A with targeted agents and chemotherapies, 72-hour in vitro proliferation assays
- Format: cell-based
- SETUP_CONDITIONS: HCC38; compound A × partner, 72-hour proliferation
Counter-ions that a name gives are not always drawn.
Rule: yes for Synergy Score not less than 6, no for anything less.

Prompt line: Identify whether the reported Synergy Score of the following compound is 6 or greater: CO[C@H]1C[C@@H]2CC[C@@H](C)[C@@](O)(O2)C(=O)C(=O)N2CCCC[C@H]2C(=O)O[C@H]([C@H](C)C[C@@H]2CC[C@@H](OCCO)[C@H](OC)C2)CC(=O)[C@H](C)/C=C(\C)[C@@H](O)[C@@H](OC)C(=O)[C@H](C)C[C@H](C)/C=C/C=C/C=C/1C
Response line: no

Prompt line: Item CN(C)C(=O)c1cc2cnc(Nc3ccc(N4CCNCC4)cn3)nc2n1C1CCCC1 with Synergy Score of 6 or above?
Response line: no

Prompt line: Decide: Synergy Score of N.N.[Cl][Pt][Cl] [Cisplatin] >= 6?
Response line: yes

Prompt line: API: above_or_equal(metric=Synergy Score, cutoff=6) for item O=C(c1cc(Cc2n[nH]c(=O)c3ccccc23)ccc1F)N1CCN(C(=O)C2CC2)CC1
Response line: yes

Prompt line: State whether the measured Synergy Score reaches 6, counting equality as reaching it, for Nc1ccn([C@@H]2O[C@H](CO)[C@@H](O)C2(F)F)c(=O)n1 [Gemcitabine Hydrochloride]
Response line: yes

Prompt line: Does the compound CC1(C)CCC(CN2CCN(c3ccc(C(=O)NS(=O)(=O)c4ccc(NCC5CCOCC5)c([N+](=O)[O-])c4)c(Oc4cnc5[nH]ccc5c4)c3)CC2)=C(c2ccc(Cl)cc2)C1 have recorded Synergy Score that is 6 or more?
Response line: no

Prompt line: Is reported Synergy Score greater than or equal to 6 here: Cc1c(-c2ccc(N3CCc4cccc(C(=O)Nc5nc6ccccc6s5)c4C3)nc2C(=O)O)cnn1CC12CC3CC(CC(C3)C1)C2
Response line: yes

Prompt line: Check the entry CC1(C)CCC(c2ccc(Cl)cc2)=C(CN2CCN(c3ccc(C(=O)NS(=O)(=O)c4ccc(N[C@H](CCN5CCOCC5)CSc5ccccc5)c(S(=O)(=O)C(F)(F)F)c4)cc3)CC2)C1 : does Synergy Score equal or exceed 6?
Response line: yes

Prompt line: Check the entry CC(=O)O[C@@]12CO[C@@H]1C[C@H](O)[C@@]1(C)C(=O)[C@H](O)C3=C(C)[C@@H](OC(=O)[C@H](O)[C@@H](NC(=O)OC(C)(C)C)c4ccccc4)C[C@@](O)([C@@H](OC(=O)c4ccccc4)[C@H]21)C3(C)C : does Synergy Score equal or exceed 6?
Response line: yes

Prompt line: Please indicate if the recorded Synergy Score for C[C@]12CC[C@@H]3c4ccc(O)cc4C[C@@H](CCCCCCCCC[S+]([O-])CCCC(F)(F)C(F)(F)F)[C@H]3[C@@H]1CC[C@@H]2O (stereo partly drawn) meets or exceeds 6.
Response line: no

====

- System: panel of breast cancer cell lines
- MEASUREMENT_DESCRIPTION: Compound A with targeted agents and chemotherapies, 72-hour in vitro proliferation assays
- Type: cell-based
- SETUP_CONDITIONS: HCC1143 cell line; compound A × partner; 72-hour proliferation
Label T for high-side HSA volume (at or above 9) and F for low-side HSA volume (below it).

Prompt line: Decide: HSA volume of CC1(C)CCC(c2ccc(Cl)cc2)=C(CN2CCN(c3ccc(C(=O)NS(=O)(=O)c4ccc(N[C@H](CCN5CCOCC5)CSc5ccccc5)c(S(=O)(=O)C(F)(F)F)c4)cc3)CC2)C1 >= 9?
Response line: T

Prompt line: Item Cn1ncnc1[C@H]1c2n[nH]c(=O)c3cc(F)cc(c23)N[C@@H]1c1ccc(F)cc1 with HSA volume of 9 or above?
Response line: F

Prompt line: Say whether N.N.O=C([O-])C1(C(=O)[O-])CCC1.[Pt+2] shows HSA volume of 9 or more.
Response line: F

Prompt line: Identify whether the reported HSA volume of the following compound is 9 or greater: CC(=O)O[C@@]12CO[C@@H]1C[C@H](O)[C@@]1(C)C(=O)[C@H](O)C3=C(C)[C@@H](OC(=O)[C@H](O)[C@@H](NC(=O)OC(C)(C)C)c4ccccc4)C[C@@](O)([C@@H](OC(=O)c4ccccc4)[C@H]21)C3(C)C
Response line: T

Prompt line: Threshold query (HSA volume >= 9) on CC1(C)CCC(CN2CCN(c3ccc(C(=O)NS(=O)(=O)c4ccc(NCC5CCOCC5)c([N+](=O)[O-])c4)c(Oc4cnc5[nH]ccc5c4)c3)CC2)=C(c2ccc(Cl)cc2)C1
Response line: F

Prompt line: Given the entry N.N.[Cl][Pt][Cl] [Cisplatin] , answer whether its HSA volume meets or surpasses 9.
Response line: F

Prompt line: Does HSA volume meet or surpass 9 for Cc1c(-c2ccc(N3CCc4cccc(C(=O)Nc5nc6ccccc6s5)c4C3)nc2C(=O)O)cnn1CC12CC3CC(CC(C3)C1)C2 ?
Response line: T

Prompt line: Determine whether this compound has HSA volume no lower than 9: CCN1CCN(Cc2ccc(Nc3ncc(F)c(-c4cc(F)c5nc(C)n(C(C)C)c5c4)n3)nc2)CC1
Response line: F

====

- Test system: panel of breast cancer cell lines
- MEASUREMENT_DESCRIPTION: Compound A with targeted agents and chemotherapies, 72-hour in vitro proliferation assays
- Format: cell-based
- SETUP_CONDITIONS: AU565 cell line; compound A × partner; 72-hour proliferation
MEASURE: Loewe Volume
No unit in the answer, only the number.

Prompt line: Request the reported Loewe Volume associated with CN(C)C(=O)c1cc2cnc(Nc3ccc(N4CCNCC4)cn3)nc2n1C1CCCC1 [LEE011]
Response line: −4.57

Prompt line: I'd like to know its Loewe Volume. The molecule in question is CO[C@H]1C[C@@H]2CC[C@@H](C)[C@@](O)(O2)C(=O)C(=O)N2CCCC[C@H]2C(=O)O[C@H]([C@H](C)C[C@@H]2CC[C@@H](OCCO)[C@H](OC)C2)CC(=O)[C@H](C)/C=C(\C)[C@@H](O)[C@@H](OC)C(=O)[C@H](C)C[C@H](C)/C=C/C=C/C=C/1C [Everolimus]
Response line: 3.01

Prompt line: May I ask what Loewe Volume has been recorded for CCOc1cc2ncc(C#N)c(Nc3ccc(OCc4ccccn4)c(Cl)c3)c2cc1NC(=O)/C=C/CN(C)C [Neratinib] ?
Response line: 10.72

Prompt line: Any idea what its Loewe Volume is? The molecule is CC(=O)O[C@@]12CO[C@@H]1C[C@H](O)[C@@]1(C)C(=O)[C@H](O)C3=C(C)[C@@H](OC(=O)[C@H](O)[C@@H](NC(=O)OC(C)(C)C)c4ccccc4)C[C@@](O)([C@@H](OC(=O)c4ccccc4)[C@H]21)C3(C)C [Docetaxel]
Response line: 1.71

Prompt line: Query: Loewe Volume; subject: C[C@]12CC[C@@H]3c4ccc(O)cc4C[C@@H](CCCCCCCCC[S+]([O-])CCCC(F)(F)C(F)(F)F)[C@H]3[C@@H]1CC[C@@H]2O (stereo partly drawn) [Fulvestrant]
Response line: 4.57

Prompt line: Item N.N.O=C([O-])C1(C(=O)[O-])CCC1.[Pt+2] [Carboplatin] has what recorded Loewe Volume?
Response line: −0.04
